Entry source: patent US7199132B2

- experimental system: dopamine transporter (Macaca fascicularis, UniProt Q9GJT6)
- Construct: The caudate-putamen was dissected from coronal slices and yielded 1.4±0.4 g tissue; Membranes were prepared as described previously; from tissue; host or cells: caudate-putamen membranes of cynomolgus or rhesus monkey brain
- Sequence (Q9GJT6 whole entry): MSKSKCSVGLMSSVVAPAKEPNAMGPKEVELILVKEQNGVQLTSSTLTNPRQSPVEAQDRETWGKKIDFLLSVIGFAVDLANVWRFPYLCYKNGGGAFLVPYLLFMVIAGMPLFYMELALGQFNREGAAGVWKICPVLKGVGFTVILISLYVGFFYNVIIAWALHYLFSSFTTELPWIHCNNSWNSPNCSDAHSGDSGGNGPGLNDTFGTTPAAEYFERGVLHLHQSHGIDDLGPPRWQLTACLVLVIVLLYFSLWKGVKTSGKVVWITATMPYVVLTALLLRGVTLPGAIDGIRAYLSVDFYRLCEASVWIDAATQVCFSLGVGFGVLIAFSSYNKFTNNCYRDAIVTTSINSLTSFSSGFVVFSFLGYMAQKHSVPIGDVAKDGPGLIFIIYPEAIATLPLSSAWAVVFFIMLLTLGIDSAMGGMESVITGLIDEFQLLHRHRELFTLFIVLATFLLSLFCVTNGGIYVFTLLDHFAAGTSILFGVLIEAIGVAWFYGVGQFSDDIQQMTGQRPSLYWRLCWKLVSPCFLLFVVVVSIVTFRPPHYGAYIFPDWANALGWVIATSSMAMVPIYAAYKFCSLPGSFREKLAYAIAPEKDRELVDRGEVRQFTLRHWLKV
- method notes: Dopamine transporter assay: inhibition of {3H}WIN 35,428 binding in caudate-putamen membranes
- Parameters: species or system rhesus or cynomolgus monkey
- condition info: IC50 (nM) DAT, inhibition of {3H}WIN 35,428 binding, monkey caudate-putamen; mean of 2 or more independent experiments in triplicate
Each record is given yes (1) if its reported IC50 is strictly below 1 nM. Records at or above 1 nM are given no (0).

CCC(=O)[C@@H]1[C@H]2[C@H](O)C[C@@H](C[C@H]1c1ccc(Cl)c(Cl)c1)N2C (relative stereo) : no (0)
COC(=O)C1=C(c2ccccc2)C[C@@H]2C[C@@H](O)[C@H]1N2C (racemic) : no (0)
COC(=O)C1=C(c2ccc(Cl)c(Cl)c2)CC2CCC1N2C (centres unmarked) [Compound 6a, reference compound] : no (0)
COC(=O)[C@@H]1[C@H]2CC[C@@H](C[C@H]1c1ccc3ccccc3c1)N2C (relative stereo) [Compound 16b, reference compound] : yes (1)
COC(=O)[C@H]1[C@@H](c2ccc(F)cc2)C[C@@H]2CC[C@H]1N2C [Compound 13c, reference compound] : no (0)
COC(=O)[C@@H]1[C@H]2C(=O)C[C@@H](C[C@H]1c1ccc(Cl)c(Cl)c1)N2C (relative stereo) : no (0)
COC(=O)C1=C(c2ccc3ccccc3c2)CC2CCC1N2C (centres unmarked) [Compound 6b, reference compound] : no (0)
COC(=O)[C@H]1[C@@H](c2ccccc2)C[C@@H]2CC[C@H]1N2C (relative stereo) [Compound 13d, reference compound] : no (0)
CCC(=O)[C@@H]1[C@H]2[C@H](O)C[C@@H](C[C@@H]1c1ccc(Cl)c(Cl)c1)N2C (relative stereo) : yes (1)
COC(=O)C1=C(c2ccccc2)CC2C(O)CC1N2C (centres unmarked) : no (0)
COC(=O)C1=C(c2ccc(F)cc2)CC2CCC1N2C (centres unmarked) [Compound 6c, reference compound] : no (0)
COC(=O)C1=C(c2ccc(F)cc2)CC2C(O)CC1N2C (centres unmarked) : no (0)

---

Recorded SERT/DAT for the following compounds
- experimental system: dopamine transporter (Macaca fascicularis, UniProt Q9GJT6)
- Construct: The caudate-putamen was dissected from coronal slices and yielded 1.4±0.4 g tissue; Membranes were prepared as described previously; from tissue; host or cells: caudate-putamen membranes of cynomolgus or rhesus monkey brain
- method notes: Dopamine transporter assay: inhibition of {3H}WIN 35,428 binding in caudate-putamen membranes
- Set-up: species or system rhesus or cynomolgus monkey
- condition info: selectivity ratio IC50 SERT / IC50 DAT
reported metric: SERT/DAT

COC(=O)[C@@H]1[C@H]2[C@H](O)C[C@@H](C[C@@H]1c1ccc3ccccc3c1)N2C (relative stereo) [Compound 15b] : 4
COC(=O)C1=C(c2ccc(Cl)c(Cl)c2)C[C@@H]2[C@@H](O)C[C@H]1N2C (racemic) : 60
COC(=O)[C@H]1[C@@H](c2ccc(Cl)c(Cl)c2)C[C@@H]2CC[C@H]1N2C [Compound 13a, reference compound] : 2
COC(=O)[C@@H]1[C@H]2C[C@H](O)[C@@H](C[C@H]1c1ccc3ccccc3c1)N2C (relative stereo) [Compound 17b] : 6
COC(=O)C1=C(c2ccc(F)cc2)CC2C(O)CC1N2C (stereo not shown) : 1

---

- experimental system: serotonin transporter (Macaca mulatta, UniProt Q9MYX0)
- Construct: The serotonin transporter was assayed in caudate-putamen membranes using conditions similar to those for the dopamine transporter; from tissue; host or cells: caudate-putamen membranes of cynomolgus or rhesus monkey brain
- Sequence (Q9MYX0 whole entry): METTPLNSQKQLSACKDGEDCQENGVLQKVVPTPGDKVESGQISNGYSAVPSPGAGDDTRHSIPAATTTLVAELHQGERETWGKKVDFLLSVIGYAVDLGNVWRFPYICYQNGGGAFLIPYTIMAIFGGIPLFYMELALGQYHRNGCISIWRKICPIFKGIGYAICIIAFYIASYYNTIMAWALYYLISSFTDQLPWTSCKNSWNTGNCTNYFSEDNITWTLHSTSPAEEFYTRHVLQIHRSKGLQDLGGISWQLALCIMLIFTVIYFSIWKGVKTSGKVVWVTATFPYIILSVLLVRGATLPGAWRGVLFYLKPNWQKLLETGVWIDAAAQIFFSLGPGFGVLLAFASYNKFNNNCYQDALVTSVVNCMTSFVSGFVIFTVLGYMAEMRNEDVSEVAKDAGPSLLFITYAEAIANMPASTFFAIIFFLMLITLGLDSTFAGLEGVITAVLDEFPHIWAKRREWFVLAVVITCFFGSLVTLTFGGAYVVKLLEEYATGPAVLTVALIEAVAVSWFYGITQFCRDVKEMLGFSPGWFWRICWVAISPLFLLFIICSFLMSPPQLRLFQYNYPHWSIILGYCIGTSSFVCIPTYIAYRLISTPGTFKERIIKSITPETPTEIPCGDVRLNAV
- method notes: Serotonin transporter assay: inhibition of {3H}citalopram binding in caudate-putamen membranes
- Set-up: species or system rhesus or cynomolgus monkey
- condition info: IC50 (nM) SERT, monkey caudate-putamen, mean of 2 or more independent experiments in triplicate
Recorded IC50 for the following molecules
reported metric: IC50 (nM)

COC(=O)C1=C(c2ccc(Cl)c(Cl)c2)C[C@H]2C[C@H](O)[C@@H]1N2C [(1R)-8a] : 1590
COC(=O)[C@@H]1[C@H]2[C@H](O)C[C@@H](C[C@H]1c1ccc3ccccc3c1)N2C (relative stereo) [Compound 18b] : 94
COC(=O)[C@@H]1[C@H]2[C@@H](O)C[C@@H](C[C@H]1c1ccc(Cl)c(Cl)c1)N2C (relative stereo) [Compound 30b] : 991
COC(=O)C1=C(c2ccc(F)cc2)CC2CCC1N2C (stereo not drawn) [Compound 6c, reference compound] : 7990
COC(=O)C1=C(c2ccc3ccccc3c2)CC2CC(O)C1N2C (stereo not drawn) [Compound 8b] : 677
COC(=O)[C@@H]1[C@H]2[C@H](O)C[C@@H](C[C@H]1OC(c1ccc(F)cc1)c1ccc(F)cc1)N2C (relative stereo) [Compound 32b] : 9560
COC(=O)[C@H]1[C@@H](c2ccc(Cl)c(Cl)c2)C[C@@H]2[C@@H](O)C[C@H]1N2C (relative stereo) [Compound 14a] : 166
COC(=O)[C@@H]1[C@H]2C[C@H](O)[C@@H](C[C@H]1OC(c1ccc(F)cc1)c1ccc(F)cc1)N2C (relative stereo) [Compound 32a] : 4850
CCC(=O)[C@@H]1[C@H]2[C@H](O)C[C@@H](C[C@@H]1c1ccc(Cl)c(Cl)c1)N2C (relative stereo) [Compound 23] : 97
COC(=O)[C@@H]1[C@H]2[C@H](O)C[C@@H](C[C@@H]1c1ccc3ccccc3c1)N2C (relative stereo) [Compound 15b] : 5.57
COC(=O)C1=C(c2ccc3ccccc3c2)CC2C(O)CC1N2C (stereo not drawn) [Compound 7b] : 260

---

- experimental system: serotonin transporter (Macaca mulatta, UniProt Q9MYX0)
- Construct: The serotonin transporter was assayed in caudate-putamen membranes using conditions similar to those for the dopamine transporter; from tissue; host or cells: caudate-putamen membranes of cynomolgus or rhesus monkey brain
- method notes: Serotonin transporter assay: inhibition of {3H}citalopram binding in caudate-putamen membranes
- Parameters: species or system rhesus or cynomolgus monkey
- condition info: IC50 (nM) SERT, monkey caudate-putamen, mean of 2 or more independent experiments in triplicate
Recorded IC50 for the following compounds
reported metric: IC50

COC(=O)C1C(c2ccc(Cl)c(Cl)c2)CC2CC(O)C1N2C (racemic) [Compound 15a] : 27.7 nM
COC(=O)[C@@H]1[C@H]2[C@H](O)C[C@@H](C[C@@H]1c1ccccc1)N2C (racemic) [Compound 15d] : > 10000 nM
COC(=O)[C@@H]1[C@H]2C(=O)C[C@@H](C[C@H]1c1ccc(Cl)c(Cl)c1)N2C (relative stereo) : 7040 nM
COC(=O)C1=C(c2ccccc2)C[C@@H]2C[C@@H](O)[C@H]1N2C (racemic) : > 10000 nM
COC(=O)[C@H]1[C@@H](c2ccc(Cl)c(Cl)c2)C[C@@H]2CC[C@H]1N2C [Compound 13a, reference compound] : 2.47 nM

---

Recorded SERT/DAT for the following molecules
- experimental system: dopamine transporter (Macaca fascicularis, UniProt Q9GJT6)
- Construct: The caudate-putamen was dissected from coronal slices and yielded 1.4±0.4 g tissue; Membranes were prepared as described previously; from tissue; host or cells: caudate-putamen membranes of cynomolgus or rhesus monkey brain
- method notes: Dopamine transporter assay: inhibition of {3H}WIN 35,428 binding in caudate-putamen membranes
- Parameters: species or system rhesus or cynomolgus monkey
- condition info: selectivity ratio IC50 SERT / IC50 DAT
reported metric: SERT/DAT

COC(=O)[C@@H]1[C@H]2C[C@H](O)[C@@H](C[C@H]1c1ccc(Cl)c(Cl)c1)N2C (relative stereo) [Compound 17a] : 238
COC(=O)[C@H]1[C@@H](c2ccccc2)C[C@@H]2[C@@H](O)C[C@H]1N2C (relative stereo) [Compound 14d] : 14
COC(=O)C1C(c2ccc(Cl)c(Cl)c2)CC2CC(O)C1N2C (single isomer, unassigned) [(1R)-15a] : 0.05
COC(=O)C1C(c2ccc(Cl)c(Cl)c2)CC2CC(O)C1N2C (racemic) [Compound 15a] : 20
COC(=O)[C@@H]1[C@H]2[C@H](O)C[C@@H](C[C@H]1c1ccc3ccccc3c1)N2C (relative stereo) [Compound 18b] : 34
COC(=O)[C@@H]1[C@H]2CC[C@@H](C[C@H]1c1ccc(F)cc1)N2C (relative stereo) [Compound 16c, reference compound] : 63

---

- experimental system: serotonin transporter (Macaca mulatta, UniProt Q9MYX0)
- Construct: The serotonin transporter was assayed in caudate-putamen membranes using conditions similar to those for the dopamine transporter; from tissue; host or cells: caudate-putamen membranes of cynomolgus or rhesus monkey brain
- method notes: Serotonin transporter assay: inhibition of {3H}citalopram binding in caudate-putamen membranes
- Set-up: species or system rhesus or cynomolgus monkey
- condition info: IC50 (nM) SERT, monkey caudate-putamen, mean of 2 or more independent experiments in triplicate
reported metric: IC50

COC(=O)C1=C(c2ccccc2)CC2C(O)CC1N2C (stereo not drawn) : > 100000 nM
COC(=O)[C@@H]1[C@H]2[C@H](O)C[C@@H](C[C@H]1c1ccc(F)cc1)N2C (relative stereo) [Compound 18c] : > 20000 nM
COC(=O)C1C(c2ccc(F)cc2)CC2C(O)CC1N2C (stereo not drawn) [Compound 14c] : > 20000 nM
